# target or system: Human recombinant PDE3A (hPDE3A) (Homo sapiens)
# Construct: purchased Scottish Biomedical; host or cells: Sf9 insect cells
# Sequence (Q14432 whole entry): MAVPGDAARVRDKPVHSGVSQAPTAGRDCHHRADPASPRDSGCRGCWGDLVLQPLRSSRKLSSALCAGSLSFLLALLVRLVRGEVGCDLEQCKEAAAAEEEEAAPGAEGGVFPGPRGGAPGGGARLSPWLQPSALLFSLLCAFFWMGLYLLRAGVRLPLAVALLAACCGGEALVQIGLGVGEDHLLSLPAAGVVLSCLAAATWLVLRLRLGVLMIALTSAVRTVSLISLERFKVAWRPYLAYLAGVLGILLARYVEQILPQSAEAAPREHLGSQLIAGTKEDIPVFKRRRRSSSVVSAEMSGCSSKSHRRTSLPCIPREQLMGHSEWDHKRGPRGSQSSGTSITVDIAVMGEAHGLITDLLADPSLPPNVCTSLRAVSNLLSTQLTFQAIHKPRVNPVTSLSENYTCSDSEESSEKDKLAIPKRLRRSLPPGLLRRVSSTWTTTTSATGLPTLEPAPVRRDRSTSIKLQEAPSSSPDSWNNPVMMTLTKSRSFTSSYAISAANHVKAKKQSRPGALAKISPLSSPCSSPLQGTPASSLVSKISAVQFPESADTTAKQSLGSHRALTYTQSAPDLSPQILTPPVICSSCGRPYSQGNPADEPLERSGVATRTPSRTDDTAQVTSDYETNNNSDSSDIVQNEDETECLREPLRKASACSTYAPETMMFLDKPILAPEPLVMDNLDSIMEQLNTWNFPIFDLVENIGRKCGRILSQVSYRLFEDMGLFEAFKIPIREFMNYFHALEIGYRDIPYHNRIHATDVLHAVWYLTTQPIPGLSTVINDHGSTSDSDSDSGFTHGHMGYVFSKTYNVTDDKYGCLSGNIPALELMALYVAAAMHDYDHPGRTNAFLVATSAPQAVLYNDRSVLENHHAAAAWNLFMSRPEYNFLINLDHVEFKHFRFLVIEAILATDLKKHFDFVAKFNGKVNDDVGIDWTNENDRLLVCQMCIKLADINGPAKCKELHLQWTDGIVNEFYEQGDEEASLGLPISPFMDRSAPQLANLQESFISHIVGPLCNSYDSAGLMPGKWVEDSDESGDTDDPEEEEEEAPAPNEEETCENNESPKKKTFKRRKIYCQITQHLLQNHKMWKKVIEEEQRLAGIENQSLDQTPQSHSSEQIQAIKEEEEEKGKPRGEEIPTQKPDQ
# procedure text: In vitro assay PDE3A (SPA, 3H-cAMP hydrolysis);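 note: the method names PDE3A and the table heading PDE3B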
# Type: biochemical
# condition set: read-out: hPDE3B Emax; read-out: Emax
# Procedure: Human recombinant PDE3A (hPDE3A) was supplied as a partially purified insect cell lysate by Scottish Biomedical, it was cloned from human brain and expressed in Sf9 cells. Tested compounds were dissolved and diluted in 100% DMSO to a concentration 100 fold of the final concentration in the assay. […] After sedimentation of the beads during 30 min the radioactivity was measured in a Perkin Elmer Topcount scintillation counter and results were expressed as cpm. […]
measured quantity: Emax (%)
Response body: numeric value in %, unit text excluded.

(Q) So what's the measured Emax for this one? Cc1cc(C(=O)N2[C@H]3CC[C@H](c4cc(C(F)F)nc5ncnn45)[C@@H]2CC3)cc(C)c1C#N [Compound 299]
(A) 40

(Q) Please look up its Emax: C[C@@H]1CCN(C(=O)c2cc3c(nc2Cl)CCCC3)C[C@H]1c1cc(C(F)F)nc2ncnn12 [Compound 170]
(A) 84

(Q) Item C[C@@H]1CCN(C(=O)c2ccc(F)c(C(F)F)c2)C[C@H]1c1cc(C(F)F)nc2ncnn12 [Compound 191] has what recorded Emax?
(A) 74

(Q) Param item = COc1ccc(C(=O)N2[C@H]3CC[C@H](c4cc(C(F)F)nc5ncnn45)[C@@H]2CC3)cc1Cl [Compound 376] ; retrieve measured Emax.
(A) 79

(Q) I am curious: what Emax value has been reported for C[C@@H]1CCN(C(=O)c2ccncc2F)C[C@H]1c1cc(C(F)F)nc2ncnn12 [Compound 155] ?
(A) 37

(Q) Param item = O=C(c1nc2ccccc2o1)N1[C@H]2CC[C@H](c3cc(C(F)F)nc4ncnn34)[C@@H]1CC2 [Compound 304] ; retrieve measured Emax.
(A) 48

(Q) Can you look up the measured Emax of C[C@@H]1CCN(C(=O)c2ccc(Cl)cn2)C[C@H]1c1cc(C(F)F)nc2ncnn12 [Compound 154] for me?
(A) 50
